log10 Ki for assorted molecules
molecular target: CCKA (Cavia porcellus); construct: The pancreatata were removed from male guinea-pigs; from tissue; host or cells: pancreas of male Dunkin Hartley guinea pigs, membranes; test: CCKA binding assay, guinea pig pancreas membranes ([125I]-CCK8(S)); conditions: [125I]-CCK8(S) 200 pM, 0.375 μM PD134,308, 150 min at 21±3° C., pH 7.2, read-out: pKi (Guinea pig pancreas) (converted)
Sequence (Q63931 whole entry): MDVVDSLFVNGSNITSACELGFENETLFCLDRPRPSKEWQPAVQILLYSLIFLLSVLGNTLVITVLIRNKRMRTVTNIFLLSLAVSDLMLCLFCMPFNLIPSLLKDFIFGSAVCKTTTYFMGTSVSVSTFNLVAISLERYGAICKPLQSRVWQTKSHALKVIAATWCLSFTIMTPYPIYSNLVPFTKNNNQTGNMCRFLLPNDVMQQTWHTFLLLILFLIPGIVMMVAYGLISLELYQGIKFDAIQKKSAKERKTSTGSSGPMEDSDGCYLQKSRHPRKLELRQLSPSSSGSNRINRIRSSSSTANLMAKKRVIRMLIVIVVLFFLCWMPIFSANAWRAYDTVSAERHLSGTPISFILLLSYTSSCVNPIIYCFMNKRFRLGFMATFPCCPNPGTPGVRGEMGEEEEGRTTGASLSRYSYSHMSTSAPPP
Base-10 log of Ki, unit µM.

Worked cases, log10 Ki given:
Incoming: Please look up its log10 Ki: CC(=O)N1[C@H](CC23CC4CC(CC(C4)C2)C3)C(=O)N(Cc2cccc(Cl)c2)c2ccccc2C(=O)C[C@H]1C(=O)O
Outgoing: 0.20

Incoming: Entry CC(=O)N1[C@H](CC23CC4CC(CC(C4)C2)C3)C(=O)N(Cc2ccccc2)c2ccccc2C(=O)C[C@H]1C(=O)O has what log10 Ki?
Outgoing: 0.70

Incoming: Any idea what its log10 Ki is? The molecule is CC1CCN(C(=O)Nc2ccc3ccccc3c2)CC(=O)N(Cc2ccccc2)c2ccccc21 (stereo not drawn)
Outgoing: -1.10

Incoming: // returns reported log10 Ki for input CC(=O)N1[C@H](CC23CC4CC(CC(C4)C2)C3)C(=O)N(Cc2ccccc2Cl)c2ccccc2C(=O)C[C@H]1C(=O)NCC(=O)O
Outgoing: 1.00

Incoming: Need log10 Ki, item COC(=O)CNC(=O)[C@@H]1CC(=O)c2ccccc2N(Cc2ccccc2)C(=O)[C@@H](CC23CC4CC(CC(C4)C2)C3)N1C(C)=O
Outgoing: 0.80

Continuing:
Incoming: Reported log10 Ki, molecule CCC1CCN(C(=O)c2cc3ccccc3[nH]2)CC(=O)N(Cc2ccccc2)c2ccccc21 (stereo not drawn) : ____
Outgoing: -0.20

Incoming: Could you share which log10 Ki value was measured for O=C1C[C@@H](C(=O)O)N(C(=O)OCc2ccccc2)[C@H](CC23CC4CC(CC(C4)C2)C3)C(=O)N(Cc2ccccc2)c2ccccc21 ?
Outgoing: 0.60

Incoming: Name the recorded log10 Ki for Cc1cccc(NC(=O)N2CCC(=O)c3ccccc3N(CC(=O)OC(C)(C)C)C(=O)C2)c1 .
Outgoing: -0.70
